Catalogue of log10(TGI) readings, one per entry.
# Test system: HL-60(TB) leukemia
# assay_overview: NCI tumour cell line growth inhibition, 48 h
Friendly reminder: values = log10 of TGI, unit µM.

- molecule: "[Cl][Sn]([c]1ccccc1)[c]1ccccc1"
  measurement: 0.81
- molecule: "COC(=O)/C=C1/OC(c2ccccc2)=C(Cl)C1=O"
  measurement: 1.21
- molecule: "COc1cc2[nH]c(-c3ccccc3)cc(=O)c2cc1OC"
  measurement: 1.61
- molecule: "NCCCCCCNc1cc(-c2cccc(OC(F)(F)F)c2)nc2ccc(N3CCCC3)cc12"
  measurement: 0.60
- molecule: "CC[C@H]1C=CCC[C@@]2(C[C@@H]3CC[C@@H]4[C@H](C(=O)OCCCCCCCCCCCCCCCC(=O)N(CCCN)C[C@@H](O)CCN)[C@]5(CCC[C@@H](C)O5)NC(=[N+]34)N2)O1"
  measurement: 0.13
- molecule: "CCCCCc1c(CCCC)c(=O)[nH]c2cc(CNCC(OC)OC)ccc12"
  measurement: 1.64
- molecule: "OC1CCC(Oc2cccc3cnc(Nc4ccc5nc[nH]c5c4)nc23)CC1 (stereo not drawn)"
  measurement: -0.35
- molecule: "COc1ccc(/C=[N+](\\[O-])[C@H](COCc2ccccc2)c2ccccc2)cc1"
  measurement: 1.89
- molecule: "CCOC(OC1=C(C#N)CCC1)C(CC)[Se]c1ccccc1 (stereo not drawn)"
  measurement: 1.58
- molecule: "NC1CCC(c2cc3ccccc3s2)(N2CCCCC2)CC1 (stereo not drawn)"
  measurement: 0.66

Exercise: What does the data say about its log10(TGI)? Entry: Cn1nnnc1[N-]Cc1ccccc1.[Au+].c1ccc([PH+](c2ccccc2)c2ccccc2)cc1
Solution: 0.16

Exercise: Try Cc1nnc2c3c(-c4ccccc4)c(-c4ccccc4)oc3nc(N(C)C)n12 next.
Solution: 1.67

Exercise: Try COc1ccc(N=C/C=C/Nc2ccc(OC)cc2)cc1 next.
Solution: 0.93

Exercise: Try CCN(CC)CCNc1ccc(N=Nc2ccc(S(N)(=O)=O)cc2)c2ccccc12 next.
Solution: 1.57

Exercise: Try c1ccc(N=NNNc2ccc(-c3nc4ccccc4[nH]3)cc2)cc1 next.
Solution: 1.79

###

Catalogue of TGI readings, one per entry.
# Test system: BT-549 breast
# assay_overview: NCI tumour cell line growth inhibition, 48 h
Where a SMILES comes first, the peptide text is derived from it. The star is where a group is joined. Boc = CC(C)(C)OC(=O)*

As a guide, the following entries are already answered.
- compound: "CC[C@@]1(OC(=O)CCC(=O)O)C(=O)OCc2c1cc1n(c2=O)Cc2cc3ccccc3nc2-1"
  TGI: "> 28.3 µM"
- compound: "O=C(O)c1nnsc1COCc1ccccc1"
  TGI: "> 100 µM"

Next item in the queue.
Exercise: Request body: readout TGI, system BT-549 breast, query CC(NC(=O)C(NC(=O)OC(C)(C)C)C(C)C)C(=O)NCC(=O)O (stereo not drawn) (Boc-Val-Ala-Gly-OH; configuration not given here) . Return the value.
Solution: > 100 µM

###

Catalogue of TGI readings, one per entry.
# Tested on: BT-549 breast
# assay_overview: NCI tumour cell line growth inhibition, 48 h

As a guide, the following entries are already answered.
- smiles_record: "CN(C)c1ccc(/C=C2\\N=C(c3ccccc3)N(c3nc4c(Cl)cc(Cl)cc4s3)C2=O)cc1"
  target_system: "BT-549 breast"
  TGI: "> 100 µM"
- smiles_record: "COc1cc2[nH]c(-c3ccccc3)cc(=O)c2cc1OC"
  target_system: "BT-549 breast"
  TGI: "> 100 µM"

Exercise: What does the data say about its TGI? Entry: CC(=O)O[C@H]1/C(=C/c2ccc(N(C)C)cc2)C[C@H]2[C@@H]3CC=C4C[C@@H](N5CCCC5)CC[C@]4(C)[C@H]3CC[C@]12C
Solution: > 100 µM

###

Catalogue of TGI readings, one per entry.
# System: SK-MEL-2 melanoma
# assay_overview: NCI tumour cell line growth inhibition, 48 h

As a guide, the following entries are already answered.
- molecule: "O=C1C=C(c2cc(Br)c(O)c(Br)c2)/C(=C/c2cc(Br)c(O)c(Br)c2)O1"
  target_system: "SK-MEL-2 melanoma"
  TGI: "> 75 µM"
- molecule: "COc1cc(C2c3cc4c(cc3OC(N3CCOCC3)C2C)OCO4)cc(OC)c1O (centres undefined)"
  target_system: "SK-MEL-2 melanoma"
  TGI: "46.3 µM"
- molecule: "O=C(CSc1nc2ccc(I)cc2c(=O)n1Cc1ccccc1)Nc1ccc(Br)cc1"
  target_system: "SK-MEL-2 melanoma"
  TGI: "> 100 µM"
- molecule: "CCOC(=O)/C=C(/CN1C(=O)c2ccccc2C1=O)c1ccccc1"
  target_system: "SK-MEL-2 melanoma"
  TGI: "> 100 µM"

Exercise: What does the data say about its TGI? Entry: O=C(c1ccco1)N(C(=S)N1CCN(c2ccccc2)CC1)c1ccccc1
Solution: > 100 µM

Exercise: Try c1c[nH]c(Cc2ncc(Cc3cnc[nH]3)[nH]2)n1 next.
Solution: > 100 µM

Exercise: Try O=Nc1c2cccnc2n2nnc3ccc(Cl)cc3c12 next.
Solution: 13.3 µM

Exercise: Try O=C(c1cccs1)N(C(=O)N1CCC(c2ccccc2)CC1)c1ccccc1 next.
Solution: > 100 µM

Exercise: Try NC1CCC(c2cc3ccccc3s2)(N2CCCCC2)CC1 (centres undefined) next.
Solution: 2.95 µM

###

# System: KM12 colon
# assay_overview: NCI tumour cell line growth inhibition, 48 h
Catalogue of TGI readings, one per entry.

As a guide, the following entries are already answered.
- compound: "Nc1nc(N)c2ncn(CC(CO)CC(c3ccccc3)P(=O)(O)O)c2n1 (stereo not drawn)"
  TGI: "> 100 µM"
- compound: "O=C(/C=C/c1ccc([N+](=O)[O-])o1)NNC(=O)c1cc2ccccc2cc1O"
  TGI: "> 23 µM"

Next item in the queue.
Exercise: Request body: readout TGI, system KM12 colon, query COC(=O)/C(=N/NC(C)(C)C)C(C(=O)C=C(C)C)C(=O)C(=O)Nc1ccc(Cl)cc1C (stereo not drawn) . Return the value.
Solution: > 100 µM

###

# Tested on: HT29 colon
# assay_overview: NCI tumour cell line growth inhibition, 48 h
quantity_kind: TGI

As a guide, the following entries are already answered.
- compound: "COc1nc2c(c(=O)n1C)N[C@@H]1[C@@H](O)[C@H](O)CO[C@@H]1N2"
  target_system: "HT29 colon"
  measurement: "> 100 µM"
- compound: "O=C1OCC2=Nc3cccc4cccc(c34)N12"
  target_system: "HT29 colon"
  measurement: "> 100 µM"

Next item in the queue.
Exercise: What does the data say about its TGI? Entry: CC(=O)Oc1ccc2c(c1)CC[C@@H]1C2[C@@H](O[N+](=O)[O-])C[C@@]2(C)C1CC[C@@H]2O (stereo partly drawn)
Solution: > 76.6 µM

###

Catalogue of GI50 readings, one per entry.
# System: KM12 colon

- smiles_record: "Cc1ccc(S(=O)(=O)NCCN2c3nc4ccccc4cc3Sc3cc4ccccc4nc32)cc1"
  measurement: "> 100000 nM"
- smiles_record: "O=[N+]([O-])/C=C\\c1ccc2c(c1)OCO2"
  measurement: "2040 nM"
- smiles_record: "NCCCCCCNc1cc(-c2cccc(OC(F)(F)F)c2)nc2ccc(N3CCCC3)cc12"
  measurement: "1790 nM"
- smiles_record: "COc1cccc2c(=O)c3c(sc12)c(NCCCN)nc1ccccc13"
  measurement: "1620 nM"
- smiles_record: "NS(=O)(=O)c1ccc(/C=C/c2cccc(O)c2)cc1"
  measurement: "35400 nM"

Exercise: Request body: readout GI50, system KM12 colon, query Nc1ccc2c(c1)[O][Sn]([c]1ccccc1)([c]1ccccc1)[O]C2=O . Return the value.
Solution: 16500 nM

Exercise: Try O=C1NC(=O)C(c2ccccc2Cl)=C1Nc1cccc(O)c1 next.
Solution: 2510 nM

Exercise: Try CCc1ccc(C2=C(O)C(=O)C(c3ccc(CC)cc3)=C(O)C2=O)cc1 next.
Solution: 1690 nM

###

# Tested on: KM12 colon
# assay_overview: NCI tumour cell line growth inhibition, 48 h
Catalogue of TGI readings, one per entry.

As a guide, the following entries are already answered.
- molecule: "COc1ccc(/C=[N+](\\[O-])[C@H](COCc2ccccc2)c2ccccc2)cc1"
  TGI: "> 100 µM"
- molecule: "OCCCNCc1ccccn1"
  TGI: "> 100 µM"
- molecule: "CC(C)(C)C([O-])=C1C(=O)c2ccccc2C1=O.CC(C)(C)C([O-])=C1C(=O)c2ccccc2C1=O.CC[O-].CC[O-].[Ti+4]"
  TGI: "> 100 µM"
- molecule: "Cc1c2ncccc2c(C)c2c1[nH]c1ccccc12"
  TGI: "29 µM"

Exercise: What does the data say about its TGI? Entry: Cc1ccc(S(=O)(=O)NCCN2c3nc4ccccc4cc3Sc3cc4ccccc4nc32)cc1
Solution: > 100 µM

Exercise: Try CC1(C)CCOC(=O)C(Cl)CC1Cl (stereo unspecified) next.
Solution: > 100 µM
